The reported numbers originate from PubChem BioAssay (NCI).

# Test system: HS 578T breast
# Experiment notes: NCI-60 one-dose screen, 48 h (100 = growth as untreated, 0 = no growth, -100 = all killed)
# Stated conditions: 10 µM unless noted
About 83,000 compounds went through this panel and 20% of them were active in at least one assay; those are over-represented in the sample as a whole.
Everything with growth lower than 80% is Not satisfied; everything else, including exactly 80%, is Satisfied.

For orientation, consider the following solved cases.
Cc1cc(N)n(S(=O)(=O)c2oc(-c3ccccc3)nc2C#N)n1 = Satisfied
COc1ccccc1CNCCCN1C(=O)c2ccc3c4c(ccc(c24)C1=O)C(=O)N(CCCNCCCCNCCCN)C3=O = Not satisfied
N[C@@H]1CCN(C(=O)c2cc3cc(Cl)c(F)c(F)c3[nH]2)C1 = Satisfied
COc1cc(C2C3=C(COC3=O)Nc3cc4c(cc32)OCO4)cc2c1OCO2 (stereo not given) = Not satisfied
COc1ccc(C(=O)N2NC(=O)/C(=C/c3ccccc3F)N=C2c2ccccc2)cc1 = Satisfied
CCCCN(CCCC)c1ccc(C(=N)c2ccc(N(CCCC)CCCC)cc2)cc1 = Not satisfied
CCOC(=O)c1ccc(NC(=O)N2CC(C)OC(C)C2)cc1 (stereo not given) = Satisfied
O=C1c2c(c3c4ccccc4n(CCCCCCBr)c3c3[nH]c4ccccc4c23)C(=O)N1O = Not satisfied

Q: Decide: is the reported value of growth for COc1cc(NCCCCCN)c2ncccc2c1 equal to or greater than 80%?
Result: Satisfied

Q: Please indicate if the recorded growth for Nc1nc(=O)c2ccccc2s1 meets or exceeds 80%.
Result: Satisfied

Q: Does growth meet or surpass 80% for Fc1ccc(-c2nc(-c3nc4ncccc4[nH]3)cc3c2[nH]c2ccccc23)cc1F ?
Result: Satisfied

Q: Could you tell me if the measured growth of COc1ccc(/C(C#N)=C/c2cc(OC)c(OC)c(OC)c2)cc1 reaches 80% or more?
Result: Satisfied

Q: For this molecule, is measured growth 80% or higher? COc1ccc(C(=O)c2cc(OC)c3c(c2)OCO3)cc1O
Result: Not satisfied

Q: Does the reported growth for OCc1ncc(-c2ccccc2)s1 fall at or above the 80% mark?
Result: Satisfied

Q: Determine whether this molecule has growth no lower than 80%: N=C(N)c1ccc(-c2ccc(-c3cncc4ccccc34)s2)cc1F
Result: Satisfied

Q: # bool: growth of Cc1ccc(/C=C2\CN(C(=O)CCN3CCC(=NO)CC3)C/C(=C\c3ccc(C)cc3)C2=O)cc1 >= 80%
Result: Not satisfied

Q: Entry C=C1C(=O)O[C@H]2[C@H]1CC/C(Cn1cc(CNC(=O)Cc3cn(C(=O)c4ccc(Cl)cc4)c4ccc(OC)cc34)nn1)=C\CC[C@@]1(C)O[C@@H]21 : is its growth no less than 80%?
Result: Not satisfied

Q: Exam item: decide whether the reported growth for FC(F)(F)c1cccc(-c2cn3c(ccc4ccccc43)n2)c1 is at least 80%.
Result: Satisfied

Q: Is reported growth greater than or equal to 80% here: COc1ccc(/C=C2\CN(Cc3cn(CCNc4ccnc5cc(Cl)ccc45)nn3)C/C(=C\c3ccc(OC)c(OC)c3)C2=O)cc1OC
Result: Not satisfied
